Listed next: entries and their corresponding kinase still bound, per cent of control.
# MEASURED ON: LRRK2 (human)
# ASSAY EXPLANATION: KINOMEscan competition binding
# MEASUREMENT CONTEXT: compound 1.0 µM

- SMI: "CN(C)C/C=C/C(=O)Nc1cccc(C(=O)Nc2ccc(Nc3nccc(-c4cccnc4)n3)cc2)c1"
  kinase still bound, per cent of control [%]: 63
- SMI: "CN(C)C/C=C/C(=O)Nc1cccc(C(=O)Nc2ccc(Nc3nccc(/C(C#N)=C4\\Nc5ccccc5S4)n3)cc2)c1"
  kinase still bound, per cent of control [%]: 57
- SMI: "CN(C)C/C=C/C(=O)Nc1cccc(C(=O)Nc2ccc(Nc3nccc(-c4c(-c5ccccc5)nn5ccccc45)n3)cc2)c1"
  kinase still bound, per cent of control [%]: 72
- SMI: "Cc1cc(NC(=O)c2cccc(NC(=O)/C=C/CN(C)C)c2)ccc1Nc1nccc(-c2cccnc2)n1"
  kinase still bound, per cent of control [%]: 50

----------
# reported kinase still bound, per cent of control; entries follow
# Tested on: FLT3 (human), P36888 [N841I]
# ASSAY EXPLANATION: KINOMEscan competition binding
# MEASUREMENT CONTEXT: compound 1.0 µM

- SMI: "Cc1cc(NC(=O)c2cccc(NC(=O)/C=C/CN(C)C)c2)ccc1Nc1nccc(-c2cccnc2)n1"
  kinase still bound, per cent of control, %: 93
- SMI: "CN(C)C/C=C/C(=O)Nc1cccc(C(=O)Nc2ccc(Nc3nccc(-c4c(-c5ccccc5)nn5ccccc45)n3)cc2)c1"
  kinase still bound, per cent of control, %: 4
- SMI: "CN(C)C/C=C/C(=O)Nc1cccc(C(=O)Nc2ccc(Nc3nccc(/C(C#N)=C4\\Nc5ccccc5S4)n3)cc2)c1"
  kinase still bound, per cent of control, %: 51
- SMI: "CN(C)C/C=C/C(=O)Nc1cccc(C(=O)Nc2ccc(Nc3nccc(-c4cccnc4)n3)cc2)c1"
  kinase still bound, per cent of control, %: 18

----------
# MEASURED ON: MYO3A (human) (UniProt Q8NEV4)
# Sequence (Q8NEV4 whole entry, looked up): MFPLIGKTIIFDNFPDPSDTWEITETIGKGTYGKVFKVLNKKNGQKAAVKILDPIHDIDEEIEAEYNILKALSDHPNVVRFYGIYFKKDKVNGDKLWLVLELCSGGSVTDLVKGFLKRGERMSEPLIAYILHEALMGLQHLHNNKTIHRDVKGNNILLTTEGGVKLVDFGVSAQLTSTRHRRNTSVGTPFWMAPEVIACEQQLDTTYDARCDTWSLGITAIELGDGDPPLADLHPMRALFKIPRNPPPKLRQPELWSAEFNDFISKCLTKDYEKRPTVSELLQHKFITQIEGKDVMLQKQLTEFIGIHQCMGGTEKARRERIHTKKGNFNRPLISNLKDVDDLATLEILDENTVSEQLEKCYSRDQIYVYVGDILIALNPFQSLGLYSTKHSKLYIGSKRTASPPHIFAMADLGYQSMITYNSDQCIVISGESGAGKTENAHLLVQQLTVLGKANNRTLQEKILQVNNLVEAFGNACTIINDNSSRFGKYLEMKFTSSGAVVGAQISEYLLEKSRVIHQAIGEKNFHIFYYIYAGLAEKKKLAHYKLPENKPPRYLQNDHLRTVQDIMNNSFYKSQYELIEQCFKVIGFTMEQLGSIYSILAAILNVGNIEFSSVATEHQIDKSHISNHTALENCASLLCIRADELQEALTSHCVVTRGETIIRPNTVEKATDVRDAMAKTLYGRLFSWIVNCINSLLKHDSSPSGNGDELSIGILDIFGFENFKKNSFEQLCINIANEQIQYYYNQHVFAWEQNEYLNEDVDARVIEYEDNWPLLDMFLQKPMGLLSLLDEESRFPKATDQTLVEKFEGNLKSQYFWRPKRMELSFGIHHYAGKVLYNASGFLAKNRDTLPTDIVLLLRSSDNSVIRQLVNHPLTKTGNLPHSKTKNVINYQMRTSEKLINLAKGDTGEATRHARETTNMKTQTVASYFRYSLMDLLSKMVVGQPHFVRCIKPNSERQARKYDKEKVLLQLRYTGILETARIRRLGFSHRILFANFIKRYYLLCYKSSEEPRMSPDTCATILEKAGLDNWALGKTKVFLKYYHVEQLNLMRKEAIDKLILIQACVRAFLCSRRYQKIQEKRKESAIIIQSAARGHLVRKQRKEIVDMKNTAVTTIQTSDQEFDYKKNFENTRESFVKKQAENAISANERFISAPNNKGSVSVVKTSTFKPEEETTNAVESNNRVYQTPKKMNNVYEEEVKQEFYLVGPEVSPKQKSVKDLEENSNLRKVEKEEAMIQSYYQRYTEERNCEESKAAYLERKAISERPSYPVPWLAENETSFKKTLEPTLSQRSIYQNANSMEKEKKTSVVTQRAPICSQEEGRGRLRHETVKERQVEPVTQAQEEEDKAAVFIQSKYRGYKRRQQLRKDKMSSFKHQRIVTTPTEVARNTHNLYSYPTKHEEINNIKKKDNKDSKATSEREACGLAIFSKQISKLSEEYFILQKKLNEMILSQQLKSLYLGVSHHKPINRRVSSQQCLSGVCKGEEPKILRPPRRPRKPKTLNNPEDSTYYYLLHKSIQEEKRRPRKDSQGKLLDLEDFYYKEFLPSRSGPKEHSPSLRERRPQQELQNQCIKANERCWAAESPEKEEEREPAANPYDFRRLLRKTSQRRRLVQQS
# ASSAY EXPLANATION: KINOMEscan competition binding
# MEASUREMENT CONTEXT: compound 1.0 µM
OUTCOME MEASURE: kinase still bound, per cent of control (%)

- SMI: "CN(C)C/C=C/C(=O)Nc1cccc(C(=O)Nc2ccc(Nc3nccc(/C(C#N)=C4\\Nc5ccccc5S4)n3)cc2)c1"
  READOUT UNITS: "%"
  OBSERVED: 100
- SMI: "CN(C)C/C=C/C(=O)Nc1cccc(C(=O)Nc2ccc(Nc3nccc(-c4cccnc4)n3)cc2)c1"
  READOUT UNITS: "%"
  OBSERVED: 81
- SMI: "CN(C)C/C=C/C(=O)Nc1cccc(C(=O)Nc2ccc(Nc3nccc(-c4c(-c5ccccc5)nn5ccccc45)n3)cc2)c1"
  READOUT UNITS: "%"
  OBSERVED: 100
- SMI: "Cc1cc(NC(=O)c2cccc(NC(=O)/C=C/CN(C)C)c2)ccc1Nc1nccc(-c2cccnc2)n1"
  READOUT UNITS: "%"
  OBSERVED: 81

----------
Parameter kinase still bound, per cent of control: see the listing below.
# MEASURED ON: RPS6KA6 KD1 (human) (UniProt Q9UK32)
# Sequence (Q9UK32 whole entry, looked up): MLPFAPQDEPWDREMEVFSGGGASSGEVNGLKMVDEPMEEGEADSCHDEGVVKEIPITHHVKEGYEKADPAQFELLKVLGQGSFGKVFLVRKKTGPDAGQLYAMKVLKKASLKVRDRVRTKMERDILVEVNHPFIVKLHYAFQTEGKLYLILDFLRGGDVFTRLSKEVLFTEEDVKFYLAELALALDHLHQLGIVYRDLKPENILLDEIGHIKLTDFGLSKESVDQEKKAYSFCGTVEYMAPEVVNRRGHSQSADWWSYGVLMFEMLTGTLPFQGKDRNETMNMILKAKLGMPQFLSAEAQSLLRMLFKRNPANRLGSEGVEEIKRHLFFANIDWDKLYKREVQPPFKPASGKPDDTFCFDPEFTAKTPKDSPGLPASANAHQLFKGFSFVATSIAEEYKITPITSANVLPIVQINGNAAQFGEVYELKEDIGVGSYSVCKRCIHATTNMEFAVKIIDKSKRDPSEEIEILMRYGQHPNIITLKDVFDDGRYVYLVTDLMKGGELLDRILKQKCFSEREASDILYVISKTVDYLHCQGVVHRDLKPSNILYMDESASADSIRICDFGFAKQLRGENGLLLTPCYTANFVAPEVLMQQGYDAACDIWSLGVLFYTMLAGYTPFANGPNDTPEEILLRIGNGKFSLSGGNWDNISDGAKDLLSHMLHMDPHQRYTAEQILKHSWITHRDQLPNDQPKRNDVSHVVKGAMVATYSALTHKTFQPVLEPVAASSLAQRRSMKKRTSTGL
# ASSAY EXPLANATION: KINOMEscan competition binding
# MEASUREMENT CONTEXT: compound 1.0 µM
OUTCOME MEASURE: kinase still bound, per cent of control

- SMI: "CN(C)C/C=C/C(=O)Nc1cccc(C(=O)Nc2ccc(Nc3nccc(-c4cccnc4)n3)cc2)c1"
  OUTCOME MEASURE: "kinase still bound, per cent of control"
  OBSERVED: "88%"
- SMI: "CN(C)C/C=C/C(=O)Nc1cccc(C(=O)Nc2ccc(Nc3nccc(/C(C#N)=C4\\Nc5ccccc5S4)n3)cc2)c1"
  OUTCOME MEASURE: "kinase still bound, per cent of control"
  OBSERVED: "100%"
- SMI: "Cc1cc(NC(=O)c2cccc(NC(=O)/C=C/CN(C)C)c2)ccc1Nc1nccc(-c2cccnc2)n1"
  OUTCOME MEASURE: "kinase still bound, per cent of control"
  OBSERVED: "100%"
- SMI: "CN(C)C/C=C/C(=O)Nc1cccc(C(=O)Nc2ccc(Nc3nccc(-c4c(-c5ccccc5)nn5ccccc45)n3)cc2)c1"
  OUTCOME MEASURE: "kinase still bound, per cent of control"
  OBSERVED: "91%"
